tested on: plasma proteins; assay: Plasma protein binding of calcifediol; assay type: in vitro ADME; details: human, read-out: bound to plasma proteins

[
  {
    "Molecule": "C=C1CC[C@H](O)C/C1=C/C=C1\\CCC[C@]2(C)[C@@H]([C@H](C)CCCC(C)(C)O)CC[C@@H]12 [calcifediol, 25-hydroxyvitamin D3]",
    "fraction unbound": "< 0.02"
  }
]
